target: CD73 on U138 neuroglioma cells (Homo sapiens, UniProt P21589); construct: U138 neuroglioma cells, which express CD73 on their surface; endogenous in cells; host or cells: U138 neuroglioma cells (ATCC); assay: Inhibition of Ecto-5′-Nucleotidase Activity in U138 Neuroglioma Cells (Assay 2); assay type: cell-based; details: 50 μM CMP, 2 hr at 37° C., malachite green readout, read-out: Assay 2: IC50, inhibition of ecto-5′-nucleotidase activity in U138 neuroglioma cells
Sequence (P21589 27-549): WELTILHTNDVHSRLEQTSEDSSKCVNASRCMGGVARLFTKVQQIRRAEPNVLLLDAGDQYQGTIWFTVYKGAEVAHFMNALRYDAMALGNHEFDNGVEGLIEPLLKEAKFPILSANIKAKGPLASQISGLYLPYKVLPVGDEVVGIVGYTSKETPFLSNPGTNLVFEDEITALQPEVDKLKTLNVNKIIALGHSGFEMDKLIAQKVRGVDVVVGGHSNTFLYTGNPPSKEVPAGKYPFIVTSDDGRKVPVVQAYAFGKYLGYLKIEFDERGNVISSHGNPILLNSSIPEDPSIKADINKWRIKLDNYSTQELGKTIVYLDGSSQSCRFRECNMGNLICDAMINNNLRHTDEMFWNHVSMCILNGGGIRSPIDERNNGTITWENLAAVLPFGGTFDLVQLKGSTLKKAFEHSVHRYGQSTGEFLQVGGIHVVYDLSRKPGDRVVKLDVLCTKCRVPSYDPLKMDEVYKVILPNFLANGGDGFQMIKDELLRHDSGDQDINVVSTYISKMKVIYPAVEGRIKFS
OBSERVATION TYPE: IC50

In the examples that follow, each entry is paired with its recorded IC50.
COMPOUND | ASSAYED TARGET | IC50
CC(C)(C)OC(=O)C(OC[C@H]1C[C@@H](n2cnc3c(N)nc(Cl)nc32)[C@H](O)[C@@H]1O)P(=O)(O)O (single isomer, unassigned) [Example 78] | CD73 on U138 neuroglioma cells (Homo sapiens, UniProt P21589) | 100 to 1000 nM
CCOC(=O)[C@](CC(=O)O)(OC[C@H]1O[C@@H](n2cnc3c(N)nc(F)nc32)[C@H](O)[C@@H]1O)P(=O)(O)O (single isomer, unassigned) | CD73 on U138 neuroglioma cells (Homo sapiens, UniProt P21589) | > 1000 nM

// field: IC50; key: CCOC(=O)[C@H](OC[C@H]1O[C@@H](n2cnc3c(NC4CCCC4)nc(Cl)nc32)[C@H](O)[C@@H]1O)P(=O)(O)O (single isomer, unassigned) ; value = < 100 nM
